assay: Short-term stability in spiked pooled human plasma (bench-top, 4 °C, 56 °C); settings: validation standard LLOV
Experimental readout: Short-time stability (24h, RT, with daylight) Accuracy [%] (%)

>  <Compound>
CCN1CCN(Cc2ccc(Nc3ncc(F)c(-c4cc(F)c5nc(C)n(C(C)C)c5c4)n3)nc2)CC1 [Abemaciclib]

>  <Measured result>
90.1

$$$$
>  <Compound>
COc1cc2nccc(Oc3ccc(NC(=O)C4(C(=O)Nc5ccc(F)cc5)CC4)cc3)c2cc1OC [Cabozantinib]

>  <Measured result>
91.8

$$$$
>  <Compound>
CNC(=O)c1ccc(N2C(=S)N(c3cnc(C#N)c(C(F)(F)F)c3)C(=O)C23CCC3)cc1F [Apalutamide]

>  <Measured result>
72.0

$$$$
>  <Compound>
Nc1cccc2c1C(=O)N(C1CCC(=O)NC1=O)C2=O (stereo not shown) [Pomalidomide]

>  <Measured result>
42.4

$$$$

Data provenance: paper PMC8699473
